Ref: ChEMBL document CHEMBL3046832

system: OVCAR-5; experiment: Cytotoxicity against Homo sapiens (human) OVCAR5 cells after 48 hr by SRB assay; type: functional; conditions: OVCAR-5, 48 h
quantity measured: GI50

Below, 10 compounds whose answers are already recorded.
>>> data_value("O=C1CS/C(=N\\S(=O)(=O)c2ccc(N3N=C4c5ccccc5CC4C3c3cccs3)cc2)N(c2ccccc2)C1 (stereo not drawn)")
"34.5 µM"
>>> data_value("O=C(c1ccccc1)n1c(-c2ccccc2)cs/c1=N\\S(=O)(=O)c1ccc(N2N=C3c4ccccc4CC3C2c2cccs2)cc1 (stereo not drawn)")
"34.3 µM"
>>> data_value("O=C(Nc1ccccc1)NS(=O)(=O)c1ccc(N2N=C3c4ccccc4CC3C2c2cccnc2)cc1 (stereo not drawn)")
"26.8 µM"
>>> data_value("O=C1CCS/C(=N\\S(=O)(=O)c2ccc(N3N=C4c5ccccc5CC4C3c3cccs3)cc2)N1c1ccccc1 (stereo not drawn)")
"22.4 µM"
>>> data_value("NS(=O)(=O)c1ccc(-n2nc3c(c2-c2cccs2)Cc2ccccc2-3)cc1")
"18.5 µM"
>>> data_value("O=S(=O)(/N=c1\\scc(-c2ccccc2)n1-c1ccccc1)c1ccc(N2N=C3c4ccccc4CC3C2c2cccs2)cc1 (stereo not drawn)")
"88.9 µM"
>>> data_value("O=C(NC(=S)NS(=O)(=O)c1ccc(N2N=C3c4ccccc4CC3C2c2cccs2)cc1)c1ccccc1 (stereo not drawn)")
"18.7 µM"
>>> data_value("NS(=O)(=O)c1ccc(N2N=C3c4ccccc4CC3C2c2cccs2)cc1 (stereo not drawn)")
"26.6 µM"
>>> data_value("O=C1CS/C(=N\\S(=O)(=O)c2ccc(N3N=C4c5ccccc5CC4C3c3cccs3)cc2)N1C(=O)c1ccccc1 (stereo not drawn)")
"32.2 µM"
>>> data_value("O=C(Nc1ccccc1)NS(=O)(=O)c1ccc(-n2nc3c(c2-c2cccs2)Cc2ccccc2-3)cc1")
"20.1 µM"

Measured on OVCAR-5, O=C(NC1CCCCC1)NS(=O)(=O)c1ccc(-n2nc3c(c2-c2cccs2)Cc2ccccc2-3)cc1 has a documented GI50 of 26.6 µM

Measured on OVCAR-5, O=S(=O)(NC(=S)Nc1ccccc1)c1ccc(N2N=C3c4ccccc4CC3C2c2cccs2)cc1 (stereo not drawn) has a documented GI50 of 17.9 µM

Measured on OVCAR-5, O=C1CCS/C(=N\S(=O)(=O)c2ccc(N3N=C4c5ccccc5CC4C3c3cccs3)cc2)N1C(=O)c1ccccc1 (stereo not drawn) has a documented GI50 of 25.8 µM

* * *

GI50 by entry:
tested on: SK-MEL-2; experiment: Cytotoxicity against Homo sapiens (human) SK-MEL-2 cells after 48 hr by SRB assay; assay type: functional; conditions: SK-MEL-2, 48 h
Kindly answer with a numeric value in µM, unit omitted.

Below, 2 compounds whose answers are already recorded.
>>> data_value("O=C(NC1CCCCC1)NS(=O)(=O)c1ccc(-n2nc3c(c2-c2cccs2)Cc2ccccc2-3)cc1")
23.6
>>> data_value("O=C1CS/C(=N\\S(=O)(=O)c2ccc(N3N=C4c5ccccc5CC4C3c3cccs3)cc2)N(c2ccccc2)C1 (stereo not given)")
60.2

Now for another entry.
Recorded result, O=C(Nc1ccccc1)NS(=O)(=O)c1ccc(-n2nc3c(c2-c2cccs2)Cc2ccccc2-3)cc1 , GI50: 70.1

* * *

tested on: HCT-116; assay: Cytotoxicity against Homo sapiens (human) HCT116 cells after 48 hr by SRB assay; type: functional; conditions: HCT-116, 48 h
GI50 by entry:
Kindly answer with a numeric value in µM, unit omitted.

>>> data_value("O=C(Nc1ccccc1)NS(=O)(=O)c1ccc(-n2nc3c(c2-c2cccs2)Cc2ccccc2-3)cc1")
9.13
>>> data_value("NS(=O)(=O)c1ccc(N2N=C3c4ccccc4CC3C2c2cccs2)cc1 (centres undefined)")
10.7
>>> data_value("O=C1CCS/C(=N\\S(=O)(=O)c2ccc(N3N=C4c5ccccc5CC4C3c3cccs3)cc2)N1c1ccccc1 (centres undefined)")
20.3

Now for another entry.
Measured on HCT-116, O=C1CCS/C(=N\S(=O)(=O)c2ccc(N3N=C4c5ccccc5CC4C3c3cccs3)cc2)N1C(=O)c1ccccc1 (centres undefined) has a documented GI50 of 10

* * *

test system: EKVX; test: Cytotoxicity against Homo sapiens (human) EKVX cells after 48 hr by SRB assay; format: functional
quantity measured: GI50 (µM)
Kindly answer with a numeric value in µM, unit omitted.

>>> data_value("O=C1CCS/C(=N\\S(=O)(=O)c2ccc(N3N=C4c5ccccc5CC4C3c3cccs3)cc2)N1c1ccccc1 (centres undefined)")
25.7
>>> data_value("O=C(NC(=S)NS(=O)(=O)c1ccc(N2N=C3c4ccccc4CC3C2c2cccs2)cc1)c1ccccc1 (centres undefined)")
19.6
>>> data_value("O=C(Nc1ccccc1)NS(=O)(=O)c1ccc(N2N=C3c4ccccc4CC3C2c2cccnc2)cc1 (centres undefined)")
27.8

Recorded result, O=C1CS/C(=N\S(=O)(=O)c2ccc(N3N=C4c5ccccc5CC4C3c3cccs3)cc2)N(c2ccccc2)C1 (centres undefined) , GI50: 39.5

* * *

test system: CAKI-1; experiment: Cytotoxicity against Homo sapiens (human) Caki1 cells after 48 hr by SRB assay; assay type: functional; conditions: CAKI-1, 48 h
GI50 by entry:
Kindly answer with a numeric value in µM, unit omitted.

Recorded result, O=C1CCS/C(=N\S(=O)(=O)c2ccc(N3N=C4c5ccccc5CC4C3c3cccs3)cc2)N1C(=O)c1ccccc1 (stereo not drawn) , GI50: 26.8

* * *

experiment: Cytotoxicity against Homo sapiens (human) renal cancer cells after 48 hr by SRB assay; type: functional; details: Cancer cell lines
TGI by entry:
Kindly answer with a numeric value in µM, unit omitted.

>>> data_value("O=C(NC1CCCCC1)NS(=O)(=O)c1ccc(-n2nc3c(c2-c2cccs2)Cc2ccccc2-3)cc1")
40.1
>>> data_value("O=C1CS/C(=N\\S(=O)(=O)c2ccc(N3N=C4c5ccccc5CC4C3c3cccs3)cc2)N1C(=O)c1ccccc1 (configuration not stated)")
99.1
>>> data_value("O=S(=O)(/N=c1\\scc(-c2ccccc2)n1-c1ccccc1)c1ccc(N2N=C3c4ccccc4CC3C2c2cccs2)cc1 (configuration not stated)")
96.5

Recorded result, O=C(Nc1ccccc1)NS(=O)(=O)c1ccc(-n2nc3c(c2-c2cccs2)Cc2ccccc2-3)cc1 , TGI: 42.5

Recorded result, O=S(=O)(NC(=S)Nc1ccccc1)c1ccc(N2N=C3c4ccccc4CC3C2c2cccs2)cc1 (configuration not stated) , TGI: 47

Recorded result, O=C(c1ccccc1)n1c(-c2ccccc2)cs/c1=N\S(=O)(=O)c1ccc(N2N=C3c4ccccc4CC3C2c2cccs2)cc1 (configuration not stated) , TGI: 95.3

Recorded result, O=C1CS/C(=N\S(=O)(=O)c2ccc(N3N=C4c5ccccc5CC4C3c3cccs3)cc2)N(c2ccccc2)C1 (configuration not stated) , TGI: 96.4

Recorded result, O=C(Nc1ccccc1)NS(=O)(=O)c1ccc(N2N=C3c4ccccc4CC3C2c2cccnc2)cc1 (configuration not stated) , TGI: 86.4

Recorded result, NS(=O)(=O)c1ccc(N2N=C3c4ccccc4CC3C2c2cccs2)cc1 (configuration not stated) , TGI: 43.7

* * *

assay: Cytotoxicity against Homo sapiens (human) non-small cell lung cancer cells after 48 hr by SRB assay; format: functional; conditions: Cancer cell lines
GI50 by entry:
Report as: number unit

>>> data_value("O=C1CCS/C(=N\\S(=O)(=O)c2ccc(N3N=C4c5ccccc5CC4C3c3cccs3)cc2)N1C(=O)c1ccccc1 (centres undefined)")
"21.7 µM"

Recorded result, O=S(=O)(/N=c1\scc(-c2ccccc2)n1-c1ccccc1)c1ccc(N2N=C3c4ccccc4CC3C2c2cccs2)cc1 (centres undefined) , GI50: 66.8 µM

Recorded result, O=C1CS/C(=N\S(=O)(=O)c2ccc(N3N=C4c5ccccc5CC4C3c3cccs3)cc2)N(c2ccccc2)C1 (centres undefined) , GI50: 41.2 µM

Recorded result, O=C1CCS/C(=N\S(=O)(=O)c2ccc(N3N=C4c5ccccc5CC4C3c3cccs3)cc2)N1c1ccccc1 (centres undefined) , GI50: 29.6 µM

* * *

test: Cytotoxicity against Homo sapiens (human) ovarian cancer cells after 48 hr by SRB assay; assay type: functional; settings: Cancer cell lines
quantity measured: GI50 (µM)
Kindly answer with a numeric value in µM, unit omitted.

Below, 4 compounds whose answers are already recorded.
>>> data_value("NS(=O)(=O)c1ccc(-n2nc3c(c2-c2cccs2)Cc2ccccc2-3)cc1")
20.6
>>> data_value("O=C1CCS/C(=N\\S(=O)(=O)c2ccc(N3N=C4c5ccccc5CC4C3c3cccs3)cc2)N1C(=O)c1ccccc1 (stereo not given)")
36.9
>>> data_value("NS(=O)(=O)c1ccc(N2N=C3c4ccccc4CC3C2c2cccs2)cc1 (stereo not given)")
40.8
>>> data_value("O=C(Nc1ccccc1)NS(=O)(=O)c1ccc(-n2nc3c(c2-c2cccs2)Cc2ccccc2-3)cc1")
31.2

Now for another entry.
Recorded result, O=C1CS/C(=N\S(=O)(=O)c2ccc(N3N=C4c5ccccc5CC4C3c3cccs3)cc2)N(c2ccccc2)C1 (stereo not given) , GI50: 63.2
